Test System: pig TRPM8 (Sus scrofa)
Construct: expressed in transfected cells; host or cells: CHO (pcDNA5/FRT/TO vector; hygromycin B and blasticidin selection)
Protocol Notes: In vitro pig TRPM8 automated patch-clamp assay (SyncroPatch 384PE, CHO cells)
Format: cell-based
Condition: CHO cells expressing pig TRPM8, 28° C.
Test Readout: EC50 (nM)

INSERT INTO measurements (compound, quantitative_readout) VALUES
  ('CC(C)[C@@H]1CC[C@@H](C)C[C@@]1(O)C(=O)NCCc1ccncc1', 7210),
  ('CC(C)[C@@H]1CC[C@@H](C)C[C@@]1(O)C(=O)NCCc1cccc(O)c1', 1760),
  ('CC(C)[C@@H]1CC[C@@H](C)C[C@@]1(O)C(=O)NCC(O)c1ccccc1Cl (some centres unmarked)', 480);

(a) COC(=O)COc1ccccc1CCNC(=O)[C@]1(O)C[C@H](C)CC[C@H]1C(C)C
(b) COC(=O)[C@H](N)COc1cccc(CCNC(=O)[C@]2(O)C[C@H](C)CC[C@H]2C(C)C)c1
(c) CC(C)[C@@H]1CC[C@@H](C)C[C@@]1(O)C(=O)NC[C@@H](O)c1ccccc1
Query :: List by increasing EC50. Rank them, then answer with their labels in that order.
Result :: c, b, a
(c: 733 nM, b: 1100 nM, a: 5050 nM)

###

Test System: pig TRPM8 (Sus scrofa, UniProt F1SM15)
Construct: expressed in transfected cells; host or cells: CHO (pcDNA5/FRT/TO vector; hygromycin B and blasticidin selection)
Sequence (F1SM15 1-1104): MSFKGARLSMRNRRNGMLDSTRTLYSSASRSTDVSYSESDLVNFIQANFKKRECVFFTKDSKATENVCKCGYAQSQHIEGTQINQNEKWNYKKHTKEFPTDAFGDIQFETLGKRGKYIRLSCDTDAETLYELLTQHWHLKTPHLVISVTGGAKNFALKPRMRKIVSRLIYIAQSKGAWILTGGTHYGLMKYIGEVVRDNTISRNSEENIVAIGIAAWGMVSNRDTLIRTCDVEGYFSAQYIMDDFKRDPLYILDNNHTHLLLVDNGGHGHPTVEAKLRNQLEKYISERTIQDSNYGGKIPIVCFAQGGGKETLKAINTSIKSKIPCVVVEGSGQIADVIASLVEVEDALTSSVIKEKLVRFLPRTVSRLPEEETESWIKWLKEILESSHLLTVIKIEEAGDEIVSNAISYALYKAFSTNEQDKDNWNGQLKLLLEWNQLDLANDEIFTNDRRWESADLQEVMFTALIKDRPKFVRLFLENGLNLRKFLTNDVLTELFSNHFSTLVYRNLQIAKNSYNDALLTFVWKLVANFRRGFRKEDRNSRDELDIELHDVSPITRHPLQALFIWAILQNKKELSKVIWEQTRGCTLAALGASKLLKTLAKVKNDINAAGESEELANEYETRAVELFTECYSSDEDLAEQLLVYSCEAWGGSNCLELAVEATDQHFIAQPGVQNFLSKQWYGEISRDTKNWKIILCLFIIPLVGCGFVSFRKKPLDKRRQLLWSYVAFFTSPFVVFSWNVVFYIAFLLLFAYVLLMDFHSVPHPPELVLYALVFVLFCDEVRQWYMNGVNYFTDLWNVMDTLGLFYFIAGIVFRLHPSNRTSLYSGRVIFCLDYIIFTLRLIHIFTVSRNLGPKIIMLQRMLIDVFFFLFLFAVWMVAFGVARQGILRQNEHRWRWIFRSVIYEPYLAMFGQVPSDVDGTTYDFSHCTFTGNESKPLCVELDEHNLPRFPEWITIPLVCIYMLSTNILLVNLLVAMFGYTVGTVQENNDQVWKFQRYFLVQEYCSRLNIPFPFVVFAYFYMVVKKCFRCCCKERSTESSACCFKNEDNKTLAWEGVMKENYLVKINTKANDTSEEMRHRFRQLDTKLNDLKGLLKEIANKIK
Protocol Notes: In vitro pig TRPM8 automated patch-clamp assay (SyncroPatch 384PE, CHO cells)
Format: cell-based
Condition: CHO cells expressing pig TRPM8, 28° C.
Structures can show the parent of a compound that is named as a salt.
Test Readout: EC50 (µM)

Take a look at these entries with their results.
INSERT INTO measurements (compound, test_system, quantitative_readout) VALUES
  ('COC(=O)Cc1cccc(CCNC(=O)[C@]2(O)C[C@H](C)CC[C@H]2C(C)C)c1 [Example 74]', 'pig TRPM8 (Sus scrofa, UniProt F1SM15)', 5.19),
  ('COC(=O)[C@@H](N)Cc1ccccc1CCNC(=O)[C@]1(O)C[C@H](C)CC[C@H]1C(C)C [Example 19]', 'pig TRPM8 (Sus scrofa, UniProt F1SM15)', 1.52),
  ('CC(C)[C@@H]1CC[C@@H](C)C[C@@]1(O)C(=O)NCCc1cccc(C(=O)OCCN)c1 [Example 16, hydrochloride]', 'pig TRPM8 (Sus scrofa, UniProt F1SM15)', 2.37),
  ('CC(C)[C@@H]1CC[C@@H](C)C[C@@]1(O)C(=O)NCCc1ccccc1OCC(N)=O [Example 81]', 'pig TRPM8 (Sus scrofa, UniProt F1SM15)', 4.25),
  ('COc1ccccc1CCNC(=O)[C@]1(O)C[C@H](C)CC[C@H]1C(C)C [Example 155]', 'pig TRPM8 (Sus scrofa, UniProt F1SM15)', 3.5),
  ('COc1cc(CO)ccc1OC(=O)CNC(=O)[C@]1(O)C[C@H](C)CC[C@H]1C(C)C [Example 79]', 'pig TRPM8 (Sus scrofa, UniProt F1SM15)', 5.16);

(1) CC(C)[C@@H]1CC[C@@H](C)C[C@@]1(O)C(=O)NCC(=O)Nc1ccc(O)cc1 [Example 88]
(2) CC(C)[C@@H]1CC[C@@H](C)C[C@@]1(O)C(=O)NCC(CCO)c1ccccc1 (some centres unmarked) [Example 66]
Query :: # min-compare on EC50 between 1 and 2 Mark your selection by writing its label.
Result :: 1

###

Test System: pig TRPM8 (Sus scrofa, UniProt F1SM15)
Construct: expressed in transfected cells; host or cells: CHO (pcDNA5/FRT/TO vector; hygromycin B and blasticidin selection)
Protocol Notes: In vitro pig TRPM8 automated patch-clamp assay (SyncroPatch 384PE, CHO cells)
Assay type: cell-based
Condition: CHO cells expressing pig TRPM8, 28° C.
Test Readout: EC50 (µM)

INSERT INTO measurements (compound, test_readout, quantitative_readout) VALUES
  ('[2H]C(O)(CNC(=O)[C@]1(O)C[C@H](C)CC[C@H]1C(C)C)c1ccccc1 (stereo partly shown)', 'EC50', 0.79);

(P) CC(C)[C@@H]1CC[C@@H](C)C[C@@]1(O)C(=O)NC[C@@H](OCC(=O)O)c1ccccc1
(Q) Cc1cccc(CCNC(=O)[C@]2(O)C[C@H](C)CC[C@H]2C(C)C)c1
(R) CC(C)[C@@H]1CC[C@@H](C)C[C@@]1(O)C(=O)NCCc1ccccc1O
Query :: List by increasing EC50. Rank them, then answer with their labels in that order.
Result :: R, Q, P

###

Test System: pig TRPM8 (Sus scrofa, UniProt F1SM15)
Construct: expressed in transfected cells; host or cells: CHO (pcDNA5/FRT/TO vector; hygromycin B and blasticidin selection)
Protocol Notes: In vitro pig TRPM8 automated patch-clamp assay (SyncroPatch 384PE, CHO cells)
Format: cell-based
Condition: CHO cells expressing pig TRPM8, 28° C.
pEC50: −log10 of the molar value.
Test Readout: pEC50

Take a look at these entries with their results.
INSERT INTO results (compound, quantitative_readout) VALUES
  ('COC(=O)COc1cccc(C(O)CNC(=O)[C@]2(O)C[C@H](C)CC[C@H]2C(C)C)c1 (some centres unmarked)', 5.37),
  ('CC(C)[C@@H]1CC[C@@H](C)C[C@@]1(O)C(=O)NCCc1ccccc1CCN', 6.49),
  ('CC(C)[C@@H]1CC[C@@H](C)C[C@@]1(O)C(=O)NCCc1ccccc1OCCCO', 5.40);

(a) CC(C)[C@@H]1CC[C@@H](C)C[C@@]1(O)C(=O)NCCc1cccc(C#N)c1
(b) COC(=O)[C@@H](N)Cc1cccc(CCNC(=O)[C@]2(O)C[C@H](C)CC[C@H]2C(C)C)c1
(c) CC(C)[C@@H]1CC[C@@H](C)C[C@@]1(O)C(=O)NCC(=O)c1ccccc1O
Query :: Please list the entries, largest pEC50 first. Rank them, then answer with their labels in that order.
Result :: c, b, a
(c: 6.56, b: 5.85, a: 5.34)

(A) CC(C)[C@@H]1CC[C@@H](C)C[C@@]1(O)C(=O)NCCc1cccc(C(=O)OCCO)c1
(B) CC(C)[C@@H]1CC[C@@H](C)C[C@@]1(O)C(=O)NCCc1ccccc1OC[C@H](O)CO
Query :: # min-compare on pEC50 between A and B Mark your selection by writing its label.
Result :: A

###

Test System: human TRPM8 (Homo sapiens, UniProt Q7Z2W7)
Construct: expressed in transfected cells; host or cells: CHO (p658 mammalian expression vector)
Sequence (Q7Z2W7 whole entry): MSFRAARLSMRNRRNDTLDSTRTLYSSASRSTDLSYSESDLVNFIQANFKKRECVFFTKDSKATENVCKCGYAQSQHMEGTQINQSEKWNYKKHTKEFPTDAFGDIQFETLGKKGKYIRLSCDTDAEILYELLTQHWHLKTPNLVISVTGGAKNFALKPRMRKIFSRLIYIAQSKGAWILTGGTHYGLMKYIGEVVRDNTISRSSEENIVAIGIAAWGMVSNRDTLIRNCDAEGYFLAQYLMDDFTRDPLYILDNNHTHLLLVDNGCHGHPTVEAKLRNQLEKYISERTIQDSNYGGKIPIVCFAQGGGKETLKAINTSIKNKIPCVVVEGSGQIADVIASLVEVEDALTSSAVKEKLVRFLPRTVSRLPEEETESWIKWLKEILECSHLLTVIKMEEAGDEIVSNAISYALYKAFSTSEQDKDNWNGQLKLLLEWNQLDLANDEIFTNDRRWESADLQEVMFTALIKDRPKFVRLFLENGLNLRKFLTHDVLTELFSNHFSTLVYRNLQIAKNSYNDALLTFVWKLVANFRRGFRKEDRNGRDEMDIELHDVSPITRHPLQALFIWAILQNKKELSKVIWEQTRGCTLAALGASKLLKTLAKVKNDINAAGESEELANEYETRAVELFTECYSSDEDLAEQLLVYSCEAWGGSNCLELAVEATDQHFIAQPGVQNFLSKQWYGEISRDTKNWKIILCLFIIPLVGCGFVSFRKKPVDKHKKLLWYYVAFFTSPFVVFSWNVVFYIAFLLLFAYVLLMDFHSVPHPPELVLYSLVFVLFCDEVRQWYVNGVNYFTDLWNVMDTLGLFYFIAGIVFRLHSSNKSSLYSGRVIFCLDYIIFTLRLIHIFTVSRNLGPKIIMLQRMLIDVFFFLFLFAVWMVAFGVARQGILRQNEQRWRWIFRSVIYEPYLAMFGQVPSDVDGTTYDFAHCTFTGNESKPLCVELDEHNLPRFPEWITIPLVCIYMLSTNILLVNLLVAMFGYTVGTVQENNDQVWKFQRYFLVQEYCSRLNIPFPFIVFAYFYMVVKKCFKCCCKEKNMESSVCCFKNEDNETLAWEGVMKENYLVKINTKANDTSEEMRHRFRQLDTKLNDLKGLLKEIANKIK
Protocol Notes: In vitro human TRPM8 automated patch-clamp assay (SyncroPatch 384PE, CHO cells)
Type: cell-based
Condition: CHO cells expressing human TRPM8, 28° C.
Counter-ions that a name gives are not always drawn.
Test Readout: EC50 (µM)

INSERT INTO results (compound, test_readout, quantitative_readout) VALUES
  ('COC(=O)c1cccc(CCNC(=O)[C@]2(O)C[C@H](C)CC[C@H]2C(C)C)c1', 'EC50', 3.8),
  ('CC(C)[C@@H]1CC[C@@H](C)C[C@@]1(O)C(=O)NCC(=O)Oc1ccccc1', 'EC50', 2.7),
  ('COC(=O)C(CNC(=O)[C@]1(O)C[C@H](C)CC[C@H]1C(C)C)c1ccccc1 (stereo partly shown)', 'EC50', 1.93),
  ('CC(C)[C@@H]1CC[C@@H](C)C[C@@]1(O)C(=O)NCCc1cccc(CO)c1', 'EC50', 1.43);

(A) COC(=O)COc1cccc(C(O)CNC(=O)[C@]2(O)C[C@H](C)CC[C@H]2C(C)C)c1 (stereo partly shown)
(B) CC(C)[C@@H]1CC[C@@H](C)C[C@@]1(O)C(=O)NCCc1ccccc1C(=O)OCCN [Example 13, hydrochloride]
Query :: Pick the one with the larger EC50: A vs B Mark your selection by writing its label.
Result :: A

(P) CC(C)[C@@H]1CC[C@@H](C)C[C@@]1(O)C(=O)NC[C@H](O)c1cccc(CO)c1
(Q) CC(C)[C@@H]1CC[C@@H](C)C[C@@]1(O)C(=O)NCC1(O)CCc2ccc(Cl)cc21 (stereo partly shown)
(R) CC(C)[C@@H]1CC[C@@H](C)C[C@@]1(O)C(=O)NCC1(c2ccccc2)COC1
(S) CC(C)[C@@H]1CC[C@@H](C)C[C@@]1(O)C(=O)NCC(C(=O)OCC(C)(C)N)c1ccccc1 (stereo partly shown) [Example 73, hydrochloride]
(T) CC(C)[C@@H]1CC[C@@H](C)C[C@@]1(O)C(=O)NCC(=O)c1cccc(O)c1
Query :: List by increasing EC50. Rank them, then answer with their labels in that order.
Result :: Q, T, S, R, P
